# MEASUREMENT DESCRIPTION: Caspase-3/7 induction in HepG2 cells by small molecules, qHTS cell viability counter screen (AID 1346981); further: nearly all actives have a fitted effect of over 30% in size; further: potency means the concentration at half of the fitted maximal effect
# EXPERIMENTAL SETUP: CellTiter-Fluor fluorescence, 17 h; series mostly up to 92.4 µM
Inconclusive results are not listed. Active and inactive are the calls of the source. The call rests on the fitted dose curve; in most records, active means well fitted cell-killing curve with a large enough effect in the repeat runs; inconclusive means weak or mixed curves, or effect the other way; inactive means flat fitted curve, though single readings scatter.
QUANTITY MEASURED: Potency

[[record]]
molecule = "CCC1(c2cnc[nH]2)Cc2ccccc2C1"
quantity_measured = "Potency"
measured_result = "inactive"

[[record]]
molecule = "CCN(CC)c1ccc(N)cc1"
quantity_measured = "Potency"
measured_result = "25 µM (active)"

[[record]]
molecule = "Cn1cnc2ncnc(N)c21"
quantity_measured = "Potency"
measured_result = "inactive"

[[record]]
molecule = "CCC1CCCCC1"
quantity_measured = "Potency"
measured_result = "inactive"

[[record]]
molecule = "CCCCCCCC/C=C\\CCCCCCCC(=O)NCc1ccc(O)c(OC)c1"
quantity_measured = "Potency"
measured_result = "inactive"

[[record]]
molecule = "C=CCCCCCCC=C"
quantity_measured = "Potency"
measured_result = "inactive"

[[record]]
molecule = "Cc1cc(Nc2ccc(O)cc2)ccc1N"
quantity_measured = "Potency"
measured_result = "48.3 µM (active)"

[[record]]
molecule = "CCCCOc1ccc(C(=O)CCN2CCCCC2)cc1"
quantity_measured = "Potency"
measured_result = "inactive"

[[record]]
molecule = "COc1nccnc1CC(C)C"
quantity_measured = "Potency"
measured_result = "inactive"

[[record]]
molecule = "CN(C)CCN1CCOCC1"
quantity_measured = "Potency"
measured_result = "inactive"


Indicate its recorded Potency; the molecule in question is CC(C)c1ccc(O)c(C(C)C)c1
inactive

---

# MEASUREMENT DESCRIPTION: A CellTox Green Cytotoxicity Assay to monitor cytotoxicity in HepG2 cells - 40 hour (AID 1224879); further: nearly all actives have a fitted effect of over 40% in size
# EXPERIMENTAL SETUP: CellTox Green fluorescence; series mostly up to 76.8 µM
Results filed as inconclusive are left out. Active and inactive are the calls of the source. Calls come from the whole dose curve; as a rule, active = well fitted activation curve with a large enough effect in the repeat runs; inconclusive = weak or mixed curves; inactive = flat fitted curve, though single readings scatter.
In this exercise, the only acceptable responses are active, inactive

[[record]]
compound = "COc1cccc(O)c1"
category = "inactive"

[[record]]
compound = "C=CC(=O)OCCC#N"
category = "inactive"

[[record]]
compound = "CCOC(=O)N1CCC(=C2c3ccc(Cl)cc3CCc3cccnc32)CC1"
category = "active"

[[record]]
compound = "O=C(Nc1ccc(Cl)c(Cl)c1)c1cc(Cl)cc(Cl)c1O"
category = "active"

[[record]]
compound = "O=C1C=CC(=O)N1c1ccccc1"
category = "active"


State the result this test recorded for CCCCCCCCCCc1ccccc1 .
inactive

// outcome(item) with item = CC(=O)OC1CCCCC1
inactive

Look up the recorded call for O=C1NCN(c2ccccc2)C12CCN(CCCC(c1ccc(F)cc1)c1ccc(F)cc1)CC2 in this test.
active

Just curious, what result did C#CC(O)CCC (stereo not given) get here?
inactive

Recorded call for CC1CCCCC1 ?
inactive

---

# MEASUREMENT DESCRIPTION: qHTS assay for small molecule activators of the heat shock response signaling pathway - cell viability counter screen (AID 743209); further: nearly all actives have a fitted effect of over 50% in size
# EXPERIMENTAL SETUP: HSE-bla HeLa viability, CellTiter-Glo luminescence, 5 h; series mostly up to 62.6 µM
Inconclusive results are not listed. The source made the active and inactive calls. The call rests on the fitted dose curve; in most records, active means well fitted cell-killing curve with a large enough effect in the repeat runs; inconclusive means weak or mixed curves, or effect the other way; inactive means no such curve, though single readings can be large or run the other way.
Just give me one of these, please: yes (1) for active, no (0) for inactive

Previously resolved entries follow.
[[record]]
compound = "C[Si](C)(C)Cl"
category = "no (0)"

[[record]]
compound = "C=C(C)C(=O)OCCC[Si](Cl)(Cl)Cl"
category = "no (0)"

[[record]]
compound = "C=CC(=C)CCC=C(C)C"
category = "no (0)"

[[record]]
compound = "CC(C)c1cccc(C(C)C)c1N1C(=O)c2ccc(O)cc2C1=O"
category = "no (0)"

[[record]]
compound = "CCN(CC)CCNc1ccc(CO)c2sc3ccccc3c(=O)c12"
category = "no (0)"

[[record]]
compound = "Oc1ccc(-c2ccc(O)cc2)cc1"
category = "no (0)"

[[record]]
compound = "c1cc(OCC2CO2)cc(OCC2CO2)c1 (stereo not given)"
category = "no (0)"

[[record]]
compound = "CNC(=O)c1cc(Oc2ccc(NC(=O)Nc3ccc(Cl)c(C(F)(F)F)c3)cc2)ccn1"
category = "no (0)"

[[record]]
compound = "C/C=C/C=N/NC(=O)c1ccncc1"
category = "yes (1)"


Now for a further compound.
Hi, do you know how CC(=O)Nc1ccc(O)cc1 came out in this test?
no (0)

---

# MEASUREMENT DESCRIPTION: A CellTox Green Cytotoxicity Assay to monitor cytotoxicity in HEK293 cells - 24 hour (AID 1224875); further: nearly all actives have a fitted effect of over 45% in size
# EXPERIMENTAL SETUP: CellTox Green fluorescence; series mostly up to 76.8 µM
Results filed as inconclusive are left out. Calls of active or inactive are those of the source. Calls follow the shape of the dose curve; as a rule, active = well fitted activation curve with a large enough effect in the repeat runs; inconclusive = weak or mixed curves; inactive = flat fitted curve, though single readings scatter.
Select the matching outcome among yes (active), no (inactive)

[[record]]
molecule = "OCCC(O)CO (stereo not given)"
category = "no"

[[record]]
molecule = "CC(C)(c1cc(Br)c(OCCO)c(Br)c1)c1cc(Br)c(OCCO)c(Br)c1"
category = "no"

[[record]]
molecule = "CCCCCCCCCCCCCCCC"
category = "no"


Hi, sorry to bother you, what did the test record for CCN(CC)c1ccc(N)cc1 ?
no

Dear colleague, could you share the recorded outcome for Cc1cccc(Br)c1 when you have a moment?
no

Please state the recorded outcome for this molecule: c1cc2c3c(c1)ccc1cccc(c13)C2
yes

Outcome logged for OCCN1CN(CCO)CN(CCO)C1 in this assay:
no

Record request — test call for CCOB(OCC)OCC
no

---

# MEASUREMENT DESCRIPTION: qHTS RealTime-Glo MT Cell Viability Assay in HepG2 cells - 40 hour (AID 1224870); further: nearly all actives have a fitted effect of over 50% in size
# EXPERIMENTAL SETUP: RealTime-Glo luminescence; series mostly up to 76.8 µM
Records with an inconclusive call do not appear. Active and inactive are the calls of the source. The call rests on the fitted dose curve; in most records, active means well fitted cell-killing curve with a large enough effect in the repeat runs; inconclusive means weak or mixed curves, or effect the other way; inactive means flat fitted curve, though single readings scatter.
Form entry, call: pick from 1.0 (active), 0.0 (inactive)

Here are 2 compounds together with their reported answers.
[[record]]
structure_notation = "Cc1c(-c2ccc(O)cc2)n(Cc2ccc(OCCN3CCCCCC3)cc2)c2ccc(O)cc12"
category = 1.0

[[record]]
structure_notation = "CCCCNc1c(C(=O)OCC)c(C)nc2c1cnn2CC"
category = 0.0


--- query ---
Recorded test outcome, item CC1CCCCC1
0.0

---

# MEASUREMENT DESCRIPTION: Caspase-3/7 induction in CHO-K1 cells by small molecules, qHTS cell viability counter screen (AID 1346979); further: nearly all actives have a fitted effect of over 35% in size
# EXPERIMENTAL SETUP: CellTiter-Fluor fluorescence, 17 h; series mostly up to 92.4 µM
Inconclusive results are not listed. Active and inactive are the calls of the source. The call rests on the fitted dose curve; in most records, active means well fitted cell-killing curve with a large enough effect in the repeat runs; inconclusive means weak or mixed curves, or effect the other way; inactive means no such curve, though single readings can be large or run the other way.
One label from this list, please: TRUE = active, FALSE = inactive

[[record]]
compound = "Cc1c(C(=O)O)cccc1[N+](=O)[O-]"
category = "FALSE"

[[record]]
compound = "COc1ccccc1OCCNCC(O)COc1cccc2[nH]c3ccccc3c12 (stereo unspecified)"
category = "TRUE"

[[record]]
compound = "CCCCCCCCCCOCC(O)CN (stereo unspecified)"
category = "TRUE"


What was the test verdict on CO[Si](CCCNCCNCCN)(OC)OC ?
FALSE

I would be grateful if you could indicate the recorded call for CCc1cccc(C)c1 .
FALSE

Each compound tested received a call. Report the one for COc1cc(C=C2CCC/C(=C\c3ccc(O)c(OC)c3)C2=O)ccc1O .
TRUE

What classification did Cc1cc2c(C(C)C)c(O)c(O)c(C=O)c2c(O)c1-c1c(C)cc2c(C(C)C)c(O)c(O)c(C=O)c2c1O end up with in this test?
TRUE

Returns: the outcome recorded for C[C@H]1O[C@@H](O[C@H]2[C@@H](O)C[C@H](O[C@H]3[C@@H](O)C[C@H](O[C@H]4CC[C@@]5(C)[C@H](CC[C@@H]6[C@@H]5C[C@@H](O)[C@]5(C)[C@@H](C7=CC(=O)OC7)CC[C@]65O)C4)O[C@@H]3C)O[C@@H]2C)C[C@H](O)[C@@H]1O in this assay.
FALSE

Just curious, what result did O=C1OC(=O)c2ccc3c4c(ccc1c24)C(=O)OC3=O get here?
FALSE

I would be grateful if you could indicate the recorded call for C=C1C(C)(C)[C@@]2(Cl)C(Cl)[C@]1(Cl)C(Cl)(Cl)C2(Cl)Cl (stereo partly specified) .
TRUE

---

# MEASUREMENT DESCRIPTION: qHTS assay to identify small molecule antagonists of the thyroid receptor (TR) signaling pathway (AID 743065); further: nearly all actives have a fitted effect of over 55% in size
# EXPERIMENTAL SETUP: GH3.TRE-Luc, T3-stimulated luciferase inhibition, 23.5 h; series mostly up to 70.3 µM
Inconclusive results are not listed. Active and inactive are the calls of the source. Calls follow the shape of the dose curve; as a rule, active = well fitted inhibition curve with a large enough effect in the repeat runs; inconclusive = weak or mixed curves; inactive = no such curve, though single readings can be large or run the other way.
Outcome (select one): active, inactive

Below are worked cases with known answers.
[[record]]
compound = "CC(C)(C)CC(C)(C)c1ccccc1O"
category = "active"

[[record]]
compound = "COc1cc(C(C)C)c2c(c1)S(=O)(=O)N(COc1cc(=O)n3cccc(OCCN4CCCCC4)c3n1)C2=O"
category = "active"

[[record]]
compound = "CCN(CC)CCSC(=O)C(c1ccccc1)c1ccccc1"
category = "active"

[[record]]
compound = "c1ccc(Sc2ccccc2)cc1"
category = "inactive"

[[record]]
compound = "CCc1cccc(C)c1"
category = "inactive"

[[record]]
compound = "C/C=C/C(=O)Oc1c(CCCCCC(C)C)cc([N+](=O)[O-])cc1[N+](=O)[O-]"
category = "active"

[[record]]
compound = "CC(C)(c1cc(Br)c(OCCO)c(Br)c1)c1cc(Br)c(OCCO)c(Br)c1"
category = "active"

[[record]]
compound = "CCCCCCC(C)Nc1ccc(Nc2ccccc2)cc1 (stereo not given)"
category = "active"

[[record]]
compound = "O=C(O)CC(=O)O"
category = "inactive"

[[record]]
compound = "CCCCCCCC/C=C\\CCCCCCCC(=O)NCc1ccc(O)c(OC)c1"
category = "active"


What did this assay record as the result for O=C(O)CCn1c2c(c3ccccc31)C[C@H](NS(=O)(=O)c1ccc(F)cc1)CC2 ?
inactive

Kindly provide the recorded test outcome for the following compound: CCN1CCN(c2cc(-c3ccc(F)cc3)c3c(n2)CCCCCC3)CC1
active
